MEASUREMENT NAME: melting point

Examples with answers:
# COMPOUND, melting point
rows = [
    ("N#Cc1ccc(Nc2nc(Cc3c(Cl)cccc3Cl)cc(NC(=O)CN3CCCCC3)n2)cc1 [Compound 25]", "175 to 180 °C"),
    ("CN(C)C=Nc1cc(Cc2c(Cl)cccc2Cl)nc(Nc2ccc(C#N)cc2)n1 [Compound 26]", "175 to 180 °C"),
    ("N#Cc1ccc(Nc2nc(Cc3c(Cl)cccc3Cl)cc(NCCN3CCCC3)n2)cc1 [Compound 13]", "80 to 85 °C"),
]

Attention now shifts to the item below.
Report melting point for CCCCCCCC(=O)Nc1cc(Cc2c(Cl)cccc2Cl)nc(Nc2ccc(C#N)cc2)n1 [Compound 17] 135 to 137 °C

Recorded values, source patent US6440986B2.
